We begin with a simple list: items and their reported viability at 48 h, 25 µM.
Assay: in vitro
Conditions: human, hek293t cells

For this compound ( `C=CC(=O)Nc1ccc2c(c1)N(C)CC2` ), measured viability at 48 h, 25 µM is 67.7%

For this compound ( `C=CC(=O)Nc1ccc(-c2nnnn2C)cc1` ), measured viability at 48 h, 25 µM is 95.5%

For this compound ( `O=C(CCl)N1c2ccc(F)cc2NC(=O)C12CCC2` ), measured viability at 48 h, 25 µM is 0.346%

For this compound ( `O=C(CCl)NCc1ccnn1C1CCCC1` ), measured viability at 48 h, 25 µM is 0.996%

----------
We begin with a simple list: items and their reported viability at 48 h, 25 µM.
Assay: in vitro
Settings: human, hek293t cells
Only the number, expressed in %, is required.

The following molecules have reported results that may help.
N#Cc1ccccc1NC(=O)CCl [5-P04, 2-chloro-N-(2-cyanophenyl)acetamide] = 0.525
CSc1ccc(C=C(C#N)C(=O)N2CCCC2)cc1 = 106
N#CC(=Cc1ccc(-c2ccc(Cl)cc2)o1)C(=O)NC1CC1 = 91
O=C(CCl)NCCCN1CCCCCC1=O = 119
C=CC(=O)NCCn1nc(C)cc1C = 56.9
CCCCNC(=O)C(C#N)=Cc1ccc(F)cc1 = 124

For this molecule ( `C=CC(=O)Nc1ccc(C(=O)Nc2ccc(N3CCOCC3)nc2)cc1` ), measured viability at 48 h, 25 µM is 1.79

For this molecule ( `CC(C)NC(=O)C(C#N)=Cc1ccc(-c2ccc([N+](=O)[O-])cc2)s1` ), measured viability at 48 h, 25 µM is 99.6

For this molecule ( `C=CC(=O)NCCNS(=O)(=O)c1cc(C)sc1C` ), measured viability at 48 h, 25 µM is 34.6

For this molecule ( `CCOc1ccc2nc(NC(=O)CCl)sc2c1` ), measured viability at 48 h, 25 µM is 0.621

For this molecule ( `COc1ccc(N2C(=O)C=CC2=O)c([N+](=O)[O-])c1` ), measured viability at 48 h, 25 µM is 100

----------
Test: in vitro
Details: human, hek293t cells
We begin with a simple list: items and their reported viability at 48 h, 25 µM.
Only the number, expressed in %, is required.

The following molecules have reported results that may help.
C=CC(=O)NC(C)c1nnnn1C1CC1 (centres unmarked) [1-M09] = 82.7
C=CC(=O)N1CCS(=O)(=O)N2CCCC12 (centres unmarked) [3-H18] = 93.3
N#CC(=CC1=Cc2ccccc2OC1)C(=O)Nc1ccc(C(=O)O)cc1 [8-N08] = 97.6
O=C(CCl)NC1CC(=O)N(c2cccc(C(F)(F)F)c2)C1 (centres unmarked) [5-E09] = 0.777
C=CC(=O)N(C)CC(=O)N1CCc2cc(OC)c(OC)cc2C1C (centres unmarked) [3-C04] = 84.6
CCc1ccc(NC(=O)C(C#N)=Cc2ccn(-c3ccccc3)n2)cc1 [8-K22] = 36.8
Cn1cc(C(=O)CCl)nn1 [10-M19] = 68.1
O=C(CCl)NC1CCS(=O)(=O)c2ccc(F)cc21 (centres unmarked) [7-H06] = 1.04

For this molecule ( COc1ccc(NC(=O)CCl)c([N+](=O)[O-])c1 [4-I21] ), measured viability at 48 h, 25 µM is 35.6

For this molecule ( N#CC(=Cc1cccc(Oc2ccccc2)c1)C(=O)N1CCCC1 [9-F06] ), measured viability at 48 h, 25 µM is 46.3

For this molecule ( Cc1cc(C=C(C#N)C(=O)Nc2cn[nH]c2)c(C)n1-c1ccc(F)cc1 [9-N07] ), measured viability at 48 h, 25 µM is 95.1

For this molecule ( Cc1oc(C(=O)O)cc1C(=O)CCl [10-M21] ), measured viability at 48 h, 25 µM is 91

For this molecule ( CC(Cl)C(=O)N(Cc1ccsc1)C1CC1 (centres unmarked) [7-G11] ), measured viability at 48 h, 25 µM is 86.9

For this molecule ( CC(C)NC(=O)C(C#N)=Cc1cccs1 [8-H15] ), measured viability at 48 h, 25 µM is 117

For this molecule ( C=CC(=O)NCc1ccc(C(=O)N2CCCC2)cc1 [3-O05] ), measured viability at 48 h, 25 µM is 71.6

For this molecule ( Cc1cc(C(C)(C)C)cc(C)c1CCNC(=O)CCl [4-A16] ), measured viability at 48 h, 25 µM is 0.58

For this molecule ( C=CC(=O)N1CCC(C(=O)N[C@H]2CCO[C@@H]2c2cccnc2)CC1 (racemic) [2-G20] ), measured viability at 48 h, 25 µM is 92.2

For this molecule ( O=C(CCl)NC1CCCc2cn(C3CCCC3)nc21 (centres unmarked) [5-O09] ), measured viability at 48 h, 25 µM is 20.7

For this molecule ( Cc1ccccc1CC(C)NC(=O)CCl (centres unmarked) [6-C06] ), measured viability at 48 h, 25 µM is 75.4

For this molecule ( N#CC(=Cc1cccs1)C(=O)Nc1nccs1 [8-G13] ), measured viability at 48 h, 25 µM is 110

For this molecule ( CCc1ccc(CNC(=O)CCl)s1 [6-K05] ), measured viability at 48 h, 25 µM is 5.18

For this molecule ( CC(C)OC(=O)c1ccc(NC(=O)C(C)Cl)cc1 (centres unmarked) [4-K08] ), measured viability at 48 h, 25 µM is 76.3

For this molecule ( N#CC(=Cc1cccc(O)c1)C(=O)Nc1ccc(SC(F)F)cc1 [9-C19] ), measured viability at 48 h, 25 µM is 99.7

----------
We begin with a simple list: items and their reported viability at 48 h, 25 µM.
Test: in vitro
Conditions: human, hek293t cells
Only the number, expressed in %, is required.

The following molecules have reported results that may help.
CCc1cccc(CC)c1NC(=O)C(C#N)=Cc1ccc(C)o1 [8-P11] = 108
CCOC(=O)C(C#N)=Cc1ccc(N2C(=O)C=CC2=O)cc1 [10-N11] = 93.1
O=C(CCl)N1N=C(c2ccc3ccccc3c2)CC1c1ccccc1 (centres unmarked) [4-K22] = -0.201
C=CC(=O)NC1CCN(c2nnnn2C)CC1 [3-G06] = 79.8
C=CC(=O)N1CCC(C(=O)N2CCC(C(=O)NC3CC3)CC2)CC1 [2-D10] = 76.9
C#CCOc1ccccc1C=C(C#N)C(=O)Nc1ccccc1F [9-C10] = 80.4

For this molecule ( O=C(CCl)Nc1cc(S(=O)(=O)N2CCOCC2)ccc1Cl [6-H03] ), measured viability at 48 h, 25 µM is 1.8

For this molecule ( Cc1cc(C(=O)CCl)c(C)n1C(c1ccccc1)c1ccccc1 [10-I08] ), measured viability at 48 h, 25 µM is 1.32

For this molecule ( COCC(NC(=O)C(C)Cl)c1ccccn1 (centres unmarked) [6-B13] ), measured viability at 48 h, 25 µM is 106

For this molecule ( C=CC(=O)NC(Cn1cnc2ccccc21)c1ccc(F)cc1 (centres unmarked) [2-C11] ), measured viability at 48 h, 25 µM is 90.5

For this molecule ( COc1cc(C=C(C#N)C(=O)Nc2cccc3ncccc23)ccc1O [9-F22] ), measured viability at 48 h, 25 µM is 112

----------
We begin with a simple list: items and their reported viability at 48 h, 25 µM.
Assay: in vitro
Details: human, hek293t cells
Only the number, expressed in %, is required.

COc1ccc(N(C)C(=O)C(C)Cl)cc1Cl (stereo not drawn) = 80.4
C=CC(=O)N1CCC(C(=O)NCc2cnn(-c3ccccc3)c2)CC1 = 91.1
Cc1ccc(CNC(=O)C(C)Cl)cc1 (stereo not drawn) = 94.7
C=CC(=O)N(C)CC(=O)NC(C)c1ncc(C)s1 (stereo not drawn) = 69.4
Cc1cccc2[nH]cc(C(=O)CCl)c12 = 5.75

Now consider a different compound.
For this compound ( Cc1csc(CN2CCN(C(=O)C(C)Cl)CC2)n1 (stereo not drawn) ), measured viability at 48 h, 25 µM is 87.4

----------
Test: in vitro
Conditions: human, hek293t cells
Class (required): determined from viability at 48 h, 25 µM; valid ranges are one: < 7%; two: ≥ 7% and < 80%; three: ≥ 80%

CC(Cl)C(=O)Nc1cccc(S(=O)(=O)N2CCCCC2)c1 (stereo not shown) = three
CC1CC(c2ccccc2F)N(C(=O)C(C)Cl)C1 (stereo not shown) = three
O=C(CCl)N1CCCCC1c1nc(-c2ccccn2)cs1 (stereo not shown) = one
CCc1ccc(C(=O)CCl)cc1 = one
CN(CC(=O)Nc1ccc(Cl)cc1)C(=O)CCl = one

Q: Quick check: band for `C=CC(=O)N1CCN(Cc2nc(C(C)C)no2)CC1`
A: two

Q: Quick check: band for CC(Cl)C(=O)N1CCC(c2nc(C3CC3)no2)(C(F)(F)F)C1 (stereo not shown)
A: three

Q: Quick check: band for CC(Cl)C(=O)Nc1ccc(Cl)c(C(F)(F)F)c1 (stereo not shown)
A: two

Q: Quick check: band for `N#CC(=Cc1ccsc1)C(=O)Nc1nccs1`
A: three

Q: Quick check: band for `C=CC(=O)Nc1ccccc1CNS(C)(=O)=O`
A: three

Q: Quick check: band for COc1ccc(OC)c(C(C)NC(=O)CCl)c1 (stereo not shown)
A: one

Q: Quick check: band for COc1ccc(C2=NN(C(=O)CCl)C(c3ccc(F)cc3)C2)cc1 (stereo not shown)
A: one

Q: Quick check: band for `N#CC(=Cc1ccc(-c2ccccc2)cc1)C(=O)N1CCCC1`
A: two

Q: Quick check: band for `O=C(CCl)N1CCOc2c1cccc2C(F)(F)F`
A: one

Q: Quick check: band for `Cc1cccc(C)c1NC(=O)C(C#N)=Cc1ccsc1`
A: three

Q: Quick check: band for CC(Cl)C(=O)Nc1ccc2c(c1)ncn2CCN(C)C (stereo not shown)
A: three
